test system: HOP-62; assay: Cytotoxicity against human HOP62 cells; assay type: functional
The compounds listed here are annotated with their GI50.

| Smiles Structure | Relation | GI50 (nM) |
| --- | --- | --- |
| COc1cc2c(cc1O)C(=O)c1c-2n(CCCN)c(=O)c2cc([N+](=O)[O-])ccc12 | < | 10 |
| COc1cc2c(cc1O)-c1c(c3ccc([N+](=O)[O-])cc3c(=O)n1CCCN)C2=O | = | 470 |
| O=C1c2ccc(O)cc2-c2c1c1ccc([N+](=O)[O-])cc1c(=O)n2CCCN1CCOCC1 | = | 25 |
| COc1cc2c(cc1O)C(=O)c1c-2n(CCCN2CCOCC2)c(=O)c2cc([N+](=O)[O-])ccc12 | < | 10 |
| O=C1c2c(O)cccc2-c2c1c1ccc([N+](=O)[O-])cc1c(=O)n2CCCN1CCOCC1 | = | 12000 |
| O=C1c2c(O)cccc2-c2c1c1ccc([N+](=O)[O-])cc1c(=O)n2CCCn1ccnc1 | = | 81 |
| O=C1c2cc(O)ccc2-c2c1c1ccc([N+](=O)[O-])cc1c(=O)n2CCCN1CCOCC1 | < | 10 |
| COc1cc2c(cc1O)-c1c(c3ccc([N+](=O)[O-])cc3c(=O)n1CCCn1ccnc1)C2=O | = | 85 |

* * *

test system: MCF7; experiment: Cytotoxicity against human MCF7 cells; format: functional
Consider the cut-off 60 nM. If the recorded GI50 is strictly smaller, the label is TRUE; if not, the label is FALSE.

| Smiles Structure | Assigned Label |
| --- | --- |
| COc1cc2c(cc1O)-c1c(c3ccc([N+](=O)[O-])cc3c(=O)n1CCCN)C2=O | FALSE |
| NCCCn1c2c(c3ccc([N+](=O)[O-])cc3c1=O)C(=O)c1c(O)cccc1-2 | FALSE |
| O=C1c2ccc(O)cc2-c2c1c1ccc([N+](=O)[O-])cc1c(=O)n2CCCn1ccnc1 | TRUE |
| NCCCn1c2c(c3ccc([N+](=O)[O-])cc3c1=O)C(=O)c1ccc(O)cc1-2 | FALSE |
| O=C1c2cc(O)ccc2-c2c1c1ccc([N+](=O)[O-])cc1c(=O)n2CCCBr | TRUE |
| COc1cc2c(cc1O)-c1c(c3ccc([N+](=O)[O-])cc3c(=O)n1CCCn1ccnc1)C2=O | TRUE |
| O=C1c2cc(O)ccc2-c2c1c1ccc([N+](=O)[O-])cc1c(=O)n2CCCn1ccnc1 | TRUE |
| O=C1c2c(O)cccc2-c2c1c1ccc([N+](=O)[O-])cc1c(=O)n2CCCn1ccnc1 | TRUE |
| O=C1c2c(O)cccc2-c2c1c1ccc([N+](=O)[O-])cc1c(=O)n2CCCN1CCOCC1 | FALSE |

* * *

molecular target: DNA topoisomerase 1 (Homo sapiens); test: Inhibition of human recombinant Top1 expressed in baculovirus-infected insect Sf9 cells using 3'-[32P]-end-labeled 117 bp DNA as substrate assessed as inhibition of DNA cleavage after 20 mins by PAGE analysis relative to 1 uM camptothecin
Entries and their measured inhibition follow.

| Smiles Structure | inhibition / % |
| --- | --- |
| O=C1c2ccc(O)cc2-c2c1c1ccc([N+](=O)[O-])cc1c(=O)n2CCCn1ccnc1 | 75 |
| NCCCn1c2c(c3ccc([N+](=O)[O-])cc3c1=O)C(=O)c1ccc(O)cc1-2 | 75 |
| O=C1c2cc(O)ccc2-c2c1c1ccc([N+](=O)[O-])cc1c(=O)n2CCCn1ccnc1 | 75 |
| NCCCn1c2c(c3ccc([N+](=O)[O-])cc3c1=O)C(=O)c1c(O)cccc1-2 | 75 |
| COc1cc2c(cc1O)C(=O)c1c-2n(CCCN2CCOCC2)c(=O)c2cc([N+](=O)[O-])ccc12 | 50 |

* * *

Here, each record is paired with measured GI50 data.
test system: MCF7; test: Cytotoxicity against human MCF7 cells; assay type: functional

| Smiles Structure | Target Of Assay | GI50 |
| --- | --- | --- |
| NCCCn1c2c(c3ccc([N+](=O)[O-])cc3c1=O)C(=O)c1cc(O)ccc1-2 | MCF7 | 26 nM |
| COc1cc2c(cc1O)C(=O)c1c-2n(CCCN2CCOCC2)c(=O)c2cc([N+](=O)[O-])ccc12 | MCF7 | < 10 nM |
| O=C1c2ccc(O)cc2-c2c1c1ccc([N+](=O)[O-])cc1c(=O)n2CCCN1CCOCC1 | MCF7 | < 10 nM |
| COc1cc2c(cc1O)C(=O)c1c-2n(CCCn2ccnc2)c(=O)c2cc([N+](=O)[O-])ccc12 | MCF7 | < 10 nM |
| COc1cc2c(cc1O)C(=O)c1c-2n(CCCN)c(=O)c2cc([N+](=O)[O-])ccc12 | MCF7 | < 10 nM |
| COc1cc2c(cc1O)-c1c(c3ccc([N+](=O)[O-])cc3c(=O)n1CCCN1CCOCC1)C2=O | MCF7 | 35 nM |
| O=C1c2cc(O)ccc2-c2c1c1ccc([N+](=O)[O-])cc1c(=O)n2CCCN1CCOCC1 | MCF7 | < 10 nM |

* * *

experiment: Cytotoxicity against human UACC62 cells; assay type: functional; conditions: UACC-62
# GI50 per record follows

| Smiles Structure | GI50 |
| --- | --- |
| NCCCn1c2c(c3ccc([N+](=O)[O-])cc3c1=O)C(=O)c1c(O)cccc1-2 | 2500 nM |
| O=C1c2c(O)cccc2-c2c1c1ccc([N+](=O)[O-])cc1c(=O)n2CCCN1CCOCC1 | 390 nM |
| O=C1c2ccc(O)cc2-c2c1c1ccc([N+](=O)[O-])cc1c(=O)n2CCCn1ccnc1 | < 10 nM |
| O=C1c2cc(O)ccc2-c2c1c1ccc([N+](=O)[O-])cc1c(=O)n2CCCN1CCOCC1 | < 10 nM |
| COc1cc2c(cc1O)C(=O)c1c-2n(CCCn2ccnc2)c(=O)c2cc([N+](=O)[O-])ccc12 | < 10 nM |

* * *

test system: HOP-62; test: Cytotoxicity against human HOP62 cells; format: functional
Listing of recorded GI50 by entry.
Observed Property: GI50

| Smiles Structure | Val |
| --- | --- |
| O=C1c2cc(O)ccc2-c2c1c1ccc([N+](=O)[O-])cc1c(=O)n2CCCn1ccnc1 | < 10 nM |
| COc1cc2c(cc1O)-c1c(c3ccc([N+](=O)[O-])cc3c(=O)n1CCCN1CCOCC1)C2=O | 79 nM |
| NCCCn1c2c(c3ccc([N+](=O)[O-])cc3c1=O)C(=O)c1c(O)cccc1-2 | 1900 nM |
| COc1cc2c(cc1O)C(=O)c1c-2n(CCCn2ccnc2)c(=O)c2cc([N+](=O)[O-])ccc12 | < 10 nM |
| NCCCn1c2c(c3ccc([N+](=O)[O-])cc3c1=O)C(=O)c1cc(O)ccc1-2 | 56 nM |

* * *

biological target: Tyrosyl-DNA phosphodiesterase 1 (Homo sapiens); assay: Inhibition of human recombinant TDP1 assessed as hydrolysis of N14Y to N14P after 15 mins by PAGE analysis
Sequence (Q9NUW8 whole entry): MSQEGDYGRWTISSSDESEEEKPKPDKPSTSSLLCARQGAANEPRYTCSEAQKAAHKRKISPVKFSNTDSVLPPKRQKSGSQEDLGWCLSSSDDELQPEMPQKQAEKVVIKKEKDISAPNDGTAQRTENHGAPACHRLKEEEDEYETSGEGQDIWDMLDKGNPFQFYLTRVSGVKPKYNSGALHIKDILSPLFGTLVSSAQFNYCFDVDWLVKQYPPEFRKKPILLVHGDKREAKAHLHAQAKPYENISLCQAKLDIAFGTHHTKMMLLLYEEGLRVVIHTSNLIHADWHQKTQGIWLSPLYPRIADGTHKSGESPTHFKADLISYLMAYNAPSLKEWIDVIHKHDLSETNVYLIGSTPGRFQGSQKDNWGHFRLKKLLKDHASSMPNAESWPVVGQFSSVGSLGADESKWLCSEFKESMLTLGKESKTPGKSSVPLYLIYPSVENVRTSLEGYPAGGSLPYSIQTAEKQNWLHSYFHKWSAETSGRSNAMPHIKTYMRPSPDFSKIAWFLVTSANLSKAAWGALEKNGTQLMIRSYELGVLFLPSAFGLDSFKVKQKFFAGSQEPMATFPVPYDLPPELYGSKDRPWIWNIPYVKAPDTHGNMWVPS
pIC50: −log10 of the molar value.

| Smiles Structure | pIC50 |
| --- | --- |
| COc1cc2c(cc1O)C(=O)c1c-2n(CCCn2ccnc2)c(=O)c2cc(OC)c(OC)cc12 | < 3.95 |
| COc1cc2c(cc1O)C(=O)c1c-2n(CCCN2CCOCC2)c(=O)c2cc(OC)c(OC)cc12 | < 3.95 |
| O=C1c2ccc(O)cc2-c2c1c1ccc([N+](=O)[O-])cc1c(=O)n2CCCN1CCOCC1 | < 3.95 |
| O=C1c2cccc(O)c2-c2c1c1ccc([N+](=O)[O-])cc1c(=O)n2CCCn1ccnc1 | < 3.95 |
| COc1cc2c(cc1O)C(=O)c1c-2n(CCCn2ccnc2)c(=O)c2cc([N+](=O)[O-])ccc12 | < 3.95 |

* * *

molecular target: Tyrosyl-DNA phosphodiesterase 1 (Homo sapiens); assay: Inhibition of human recombinant TDP1 assessed as hydrolysis of N14Y to N14P after 15 mins by PAGE analysis
Quick reference for IC50 among some compounds
Observed Property: IC50

| Smiles Structure | Val |
| --- | --- |
| O=C1c2cc(O)ccc2-c2c1c1ccc([N+](=O)[O-])cc1c(=O)n2CCCn1ccnc1 | > 111 µM |
| O=C1c2c(O)cccc2-c2c1c1ccc([N+](=O)[O-])cc1c(=O)n2CCCn1ccnc1 | > 111 µM |
| O=C1c2ccc(O)cc2-c2c1c1ccc([N+](=O)[O-])cc1c(=O)n2CCCn1ccnc1 | > 111 µM |
| COc1cc2c(cc1O)-c1c(c3cc(OC)c(OC)cc3c(=O)n1CCCn1ccnc1)C2=O | > 111 µM |
| COc1cc2c(cc1O)C(=O)c1c-2n(CCCN2CCOCC2)c(=O)c2cc([N+](=O)[O-])ccc12 | > 111 µM |
| COc1cc2c(cc1O)-c1c(c3ccc([N+](=O)[O-])cc3c(=O)n1CCCN1CCOCC1)C2=O | > 111 µM |
| O=C1c2c(O)cccc2-c2c1c1ccc([N+](=O)[O-])cc1c(=O)n2CCCN1CCOCC1 | > 111 µM |
| O=C1c2cc(O)ccc2-c2c1c1ccc([N+](=O)[O-])cc1c(=O)n2CCCN1CCOCC1 | > 111 µM |
| O=C1c2cccc(O)c2-c2c1c1ccc([N+](=O)[O-])cc1c(=O)n2CCCN1CCOCC1 | > 111 µM |
